Read-out: Interleukin-1 alpha (IL1a), IL1A (gene 3552)
Experiment: BSK_IMphg_IL1a: BioMAP Diversity Plus: IMphg Assay for Interleukin-1 alpha (IL1a) Biomarker Activity (AID 2284290)
Conditions: primary human endothelial cells with macrophages
Calls of active or inactive are those of the source. How the source made its calls: active means hit-call score of the fitted dose curve at least 0.9, where 1 is the maximum; inactive means score below 0.9.
reported_endpoint: outcome

// solved cases for outcome follow
FC(F)(F)C(F)(F)C(F)(F)N(C(F)(F)C(F)(F)C(F)(F)F)C(F)(F)C(F)(F)C(F)(F)F
inactive
O=S(=O)(O)C(F)(F)C(F)(F)C(F)(F)C(F)(F)C(F)(F)C(F)(F)C(F)(F)F
inactive
O=C(O)C(F)(F)C(F)(F)OC(F)(F)F
inactive
O=C(O)C(F)(F)C(F)(F)C(F)(F)C(F)(F)C(F)(F)C(F)(F)C(F)(F)C(F)(F)Cl
inactive
CC(C)(C)C(=O)CC(=O)C(F)(F)C(F)(F)C(F)(F)F
inactive
FC(F)(F)C(F)(F)C(F)(F)C(F)(F)C(F)(F)C(F)(F)C(F)(F)Br
inactive

Give the measured outcome of `FC(F)(F)C(F)(F)C(F)(F)C(F)(F)C(F)(F)C(F)(F)C(F)(F)C(F)(F)F` .
inactive

Moving on to `O=C(O)C(F)(F)C(F)(F)C(F)(F)C(F)(F)C(F)(F)C(F)(F)C(F)(F)C(F)(F)C(F)(F)C(F)(F)C(F)(F)C(F)(F)F`
inactive

Moving on to `O=P(O)(O)OCCC(F)(F)C(F)(F)C(F)(F)C(F)(F)C(F)(F)C(F)(F)F`
inactive

Moving on to `C=CC(=O)OCC(F)(F)C(F)(F)C(F)(F)C(F)(F)C(F)(F)C(F)(F)C(F)(F)F`
inactive

Moving on to O=C(O)C(F)(OC(F)(F)C(F)(OC(F)(F)C(F)(F)C(F)(F)F)C(F)(F)F)C(F)(F)F (centres undefined)
inactive

Moving on to `FC(F)(F)C(F)(F)C(F)(F)C(F)(F)C(F)(F)C(F)(F)C(F)(F)I`
inactive

Moving on to `OCCCC(F)(F)C(F)(F)C(F)(F)F`
inactive

Moving on to `OCC(F)(F)C(F)(F)C(F)(F)C(F)F`
inactive

Moving on to `FC(F)(F)C(F)(F)C(F)(F)CI`
inactive

Moving on to `O=C(O)C(F)(F)C(F)(F)C(F)(F)C(F)(F)C(F)(F)C(F)(F)C(F)(F)C(F)(F)C(F)(F)C(F)F`
inactive

Moving on to `O=S(=O)(OCCOC(F)(F)F)C(F)(F)F`
inactive

Moving on to `OCC(F)(F)C(F)(F)C(F)(F)C(F)(F)C(F)(F)C(F)(F)F`
inactive

Moving on to `OCC(F)(F)C(F)(F)C(F)(F)F`
inactive

---

Test: CCTE_Shafer_MEA_dev_burst_duration_mean: CCTE's Neural Network Formation Assay for Mean Burst Duration, Shafer Lab (AID 2284045);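 on AC50: curve fitted for loss meaning shorter burst duration than DMSO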
The source made the active and inactive calls. The calls were made as follows: active = hit-call score of the fitted dose curve at least 0.9, where 1 is the maximum; inactive = score below 0.9.
reported_endpoint: AC50

// solved cases for AC50 follow
OCC(F)(F)C(F)(F)C(F)(F)C(F)(F)C(F)(F)C(F)F
inactive
Cc1ccc(S(=O)(=O)OCC(F)(F)C(F)(F)C(F)(F)C(F)(F)C(F)(F)C(F)F)cc1
inactive
O=S(=O)(OCCOC(F)(F)F)C(F)(F)F
inactive
O=C(O)C(F)(F)C(F)(F)C(F)(F)F
inactive

Give the measured AC50 of `C=CC(=O)OCC(F)(F)C(F)(F)C(F)(F)C(F)(F)COC(=O)C=C` .
2870 nM (active)

Moving on to `FC(F)(F)C(F)(F)C(F)(F)C(F)(F)C(F)(F)CCI`
inactive

---

Test: BSK_BE3C_SRB: Viability Assessment in the BioMAP Diversity Plus: BE3C Assay (AID 2283028)
Conditions: primary human bronchial epithelial cells
Active and inactive are the calls of the source. The calls were made as follows: active = hit-call score of the fitted dose curve at least 0.9, where 1 is the maximum; inactive = score below 0.9.
Respond only with the outcome that fits, drawn from active, inactive

Use these answered entries as a reference point.
CCCCCCCCCCCCCCCC[N+](C)(C)Cc1ccccc1
active
CO[Si](OC)(c1ccccc1)c1ccccc1
inactive
CS(C)(=O)=O
inactive

Hi, sorry to bother you, what did the test record for `FC(F)(F)C(F)(F)C(F)(F)C(F)(F)C(F)(F)C(F)(F)C(F)(F)C(F)(F)F` ?
inactive

Moving on to `C=CC(=O)OCC(F)(F)C(F)(F)C(F)(F)C(F)(F)C(F)(F)C(F)(F)C(F)(F)F`
inactive

Moving on to `FC(F)(F)C(F)(F)C(F)(F)C(F)(F)C(F)(F)CCI`
inactive

Moving on to `O=C(O)C(F)(F)C(F)(F)C(F)F`
inactive

Moving on to `Oc1ccc(Nc2ccccc2)cc1`
inactive

Moving on to `FC(F)(F)C(F)(F)C(F)(F)C(F)(F)C(F)(F)C(F)(F)C(F)(F)C(F)(F)CCS`
inactive

Moving on to `FC(F)(F)C(F)(F)C(F)(F)N(C(F)(F)C(F)(F)C(F)(F)F)C(F)(F)C(F)(F)C(F)(F)F`
inactive

Moving on to `C=C(C)C(=O)OCC(F)(F)C(F)(F)C(F)(F)C(F)(F)C(F)(F)C(F)(F)C(F)(F)F`
inactive

Moving on to `Cc1ccc(S(=O)(=O)OCC(F)(F)C(F)(F)C(F)(F)C(F)(F)C(F)(F)C(F)F)cc1`
inactive

Moving on to `O=C(O)C(F)(F)C(F)(F)C(F)(F)C(F)(F)C(F)(F)C(F)(F)C(F)(F)C(F)(F)C(F)(F)C(F)(F)C(F)(F)C(F)(F)F`
inactive

---

Read-out: TIMP metallopeptidase inhibitor 1 (TIMP1), TIMP1 (gene 7076)
Assay: BSK_MyoF_TIMP1: BioMAP Diversity Plus: MyoF Assay for TIMP metallopeptidase inhibitor 1 (TIMP1) Biomarker Activity (AID 2284269)
Conditions: primary human lung fibroblasts
Protocol: BSK_MyoF is a cell-based, multiplexed-readout assay that uses lung fibroblasts, […], with measurements taken at 24 hours after chemical dosing in a microplate: 96-well plate.BSK_MyoF_TIMP1 is an assay component measured in the BSK_MyoF assay. […] The levels of cell surface (or secreted, indicated by the prefix "s") biomarker endpoints were measured by ELISA. […] Plates were read after 6 h.
Activity calls are given as the source filed them. Rule for the calls: active = hit-call score of the fitted dose curve at least 0.9, where 1 is the maximum; inactive = score below 0.9.
Respond only with the outcome that fits, drawn from active, inactive

O=C(O)C(F)(OC(F)(F)C(F)(OC(F)(F)C(F)(OC(F)(F)C(F)(F)C(F)(F)F)C(F)(F)F)C(F)(F)F)C(F)(F)F (centres undefined)
inactive

Hi, sorry to bother you, what did the test record for `N=C(N)C(F)(F)C(F)(F)C(F)(F)C(F)(F)C(F)(F)C(F)(F)C(F)(F)F` ?
inactive

Moving on to `Oc1ccc(Nc2ccccc2)cc1`
inactive

Moving on to `CCCCNc1ccccc1`
inactive

Moving on to `COC(=O)CCC(F)(F)C(F)(F)C(F)(F)C(F)(F)F`
inactive

Moving on to `CCO[Si](CCC(F)(F)C(F)(F)C(F)(F)C(F)(F)C(F)(F)C(F)(F)F)(OCC)OCC`
inactive

Moving on to `FC(F)(F)C(F)(F)C(F)(F)C(F)(F)CCI`
inactive

Moving on to `O=C(O)C(F)(F)C(F)(F)C(F)(F)C(F)(F)C(F)(F)C(F)(F)C(F)(F)C(F)(F)C(F)(F)C(F)(F)C(F)(F)C(F)(F)C(F)(F)F`
inactive

Moving on to `OCC(F)(F)C(F)(F)C(F)(F)C(F)F`
inactive

Moving on to `O=C(O)C(F)(F)C(F)(F)OC(F)(F)F`
inactive

Moving on to `CCCCCCCCCCCCCCCC[N+](C)(C)Cc1ccccc1`
active

Moving on to `O=C(Cl)C(F)(F)C(F)(F)C(F)(F)C(F)(F)C(F)(F)C(F)(F)C(F)(F)C(F)(F)F`
inactive

Moving on to `C=C(C)C(=O)OCC(F)(F)C(F)(F)C(F)(F)F`
inactive

Moving on to `CCN(CC)c1ccc2c(C)cc(=O)oc2c1`
inactive

Moving on to CCCCCCC(C)OC(=O)CCCCC(=O)OC(C)CCCCCC (centres undefined)
inactive

Moving on to `C=CC/C=C/C/C=C/C/C=C/C`
inactive

Moving on to `O=S(=O)(OCCOC(F)(F)F)C(F)(F)F`
inactive

Moving on to `CCc1ccc(C(c2ccc(CC)cc2)C(Cl)Cl)cc1`
inactive

---

Target: Nuclear receptor subfamily 1 group I member 2 (Homo sapiens) (UniProt O75469)
Sequence (O75469 whole entry, looked up): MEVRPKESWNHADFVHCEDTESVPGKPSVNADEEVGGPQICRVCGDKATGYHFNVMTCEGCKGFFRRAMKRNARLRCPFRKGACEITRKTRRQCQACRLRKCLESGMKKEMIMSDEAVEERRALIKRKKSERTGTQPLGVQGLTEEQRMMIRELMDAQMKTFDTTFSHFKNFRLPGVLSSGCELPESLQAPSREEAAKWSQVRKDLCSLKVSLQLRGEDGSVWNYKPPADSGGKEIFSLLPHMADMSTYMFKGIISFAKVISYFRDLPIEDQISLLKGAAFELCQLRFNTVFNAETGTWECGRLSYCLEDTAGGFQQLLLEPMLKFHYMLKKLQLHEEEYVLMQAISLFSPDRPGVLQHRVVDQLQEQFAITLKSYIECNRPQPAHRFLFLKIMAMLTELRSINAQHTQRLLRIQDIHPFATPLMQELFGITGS
Test: ATG_PXR_TRANS: Attagene TRANS-FACTORIAL HepG2 Assay for human Pregnane X Receptor (PXR) (AID 2283008)
Protocol: ATG_TRANS is a cell-based, multiplexed-readout assay that uses HepG2, a human liver cell line, with measurements taken at 24 hours after chemical dosing in a 24-well plate.ATG_PXR_TRANS is one of 30 assay component(s) measured or calculated from the ATG_TRANS assay. […] This assay endpoint, ATG_PXR_TRANS, was analyzed in the positive analysis fitting direction relative to DMSO as the negative control and baseline of activity. […]
Inconclusive results are not listed. Calls of active or inactive are those of the source. Rule for the calls: active = hit-call score of the fitted dose curve at least 0.9, where 1 is the maximum; inconclusive = response in the unintended direction; inactive = score below 0.9.
Respond only with the outcome that fits, drawn from 1 (active), -1 (inactive)

Use these answered entries as a reference point.
FC(F)(F)C(F)(F)C(F)(F)C(F)(F)C(F)(F)C(F)(F)C(F)(F)C(F)(F)F
-1
CC(Cc1ccc(O)c(O)c1)C(C)Cc1ccc(O)c(O)c1 (stereo unspecified)
1

Hi, sorry to bother you, what did the test record for `C=C(C)C(=O)OCC(F)(F)C(F)(F)C(F)(F)F` ?
-1

Moving on to `FC(F)(F)C(F)(F)C(F)(F)C(F)(F)C(F)(F)C(F)(F)C(F)(F)Br`
-1

Moving on to `CNC(=S)NC`
-1
